- System name: recombinant human IL-5 protein (human) (UniProt P05113)
- Test summary: SPR, human IL-5 immobilized on chip, 1:1 fit
Parameter: kon (M⁻¹ s⁻¹)

1) 151G3B11 (murine hybridoma lead antibody) (antibody, V domains shown) VH: EVHLQQSGAELVKPGASVKLSCTASGFNIKDYYMHWVKQRTEQGLEWIGRIDPEDGETKYAPKFQGQATITADTSSNTANLQLSSLTSEDTAVYYCARYGNFPDYWGPGTTLTVSS VL: QIVLTQSPALMSASPGEKVTMTCSASSSVSYMYWYQQKPRSSPKPWIYLTSKLASGVPARFSGSGSGTSYSLTISSMEAEDAATYYCQQWNSNPYTFGGGTKLEIK: 486000
2) 69F2F3 (murine hybridoma lead antibody) (antibody, V domains shown) VH: QVQLKQSGPGLVQPSQSLSITCTVSGFSLSNYGVHWVRQSPGKGLEWLGVIWSGGSTDYNAAFKSRLSITKDNSKSQVVFRMNSLQTDDTATYYCARNKDFLDYWGQGTKFTVSS VL: DIVMTQSPSSLTVTAGEKVTMTCKSSQGLLNSGNQKNYLTWYQQKPGQPPKLLIYWASTRESGVPDRFTGSGSGTDFTLTISSVQAEDLAVYYCQNDYHFPLTFGAGTKLELK: 368000
3) 154F10G8 (murine hybridoma lead antibody) (antibody, V domains shown) VH: QVQLQQPGAELVKPGASVKLSCKASGYTFTSYWITWVKQRPGQGLEWIGDIYPGSGSTFYNEKFKSEATLTVDTSSSTAYMQLSSLTSEDSAVFYCSTETTLGYWGQGTTLTVSS VL: DVLMTQTPLSLPVSLGDQASISCRSSQSIVHNNGNTYLEWYLQKPGQSPKLLIYKVSNRFSGVPDRFSGSGSGTDFTLKISRVEAEDLGVYYCFQGSHVPFTFGSGTKLEIK: 422000
4) 147D7H2 (murine hybridoma lead antibody) (antibody, V domains shown) VH: EVQLQQSGAELVKPGASVKLSCTASGFNIKDYFIHWVKQRTEQGLEWIGRIDTEDGETKYAPKFQGKATITIDTSSNTAYLYFSSLTSEDTAMYYCARYGNYVAMDYWGQGTSVTVSS VL: QIVLTQSPALMSASPGEKVTMTCSASSSVSYMFWYQQKPSSSPKPWIYLTSKLASGVPARFSGSGSGTSYSLTISSVEAEDAATYYCQQWNSNPYTFGGGTKLEIK: 198000
